- Particulars: 308.15 K; 100 kPa; Liquid; Alternating current cell with electrodes
Property Measured: electrical conductivity (S/m)

CC(=O)O.CCCCN [butylammonium acetate]
0.103
CCC(=O)[O-].CCCC[NH3+] [butylammonium propanoate]
0.091
CCCC(=O)[O-].CCCC[NH3+] [n-butylammonium butanoate]
0.059
CCCC[NH3+].O=C[O-] [butylammonium formate]
0.443

* * *

- Particulars: 318.15 K; 100 kPa; Liquid; Alternating current cell with electrodes
Listed here are compounds together with their documented electrical conductivity.
Property Measured: electrical conductivity (S/m)

CCC(=O)[O-].CCCC[NH3+] [butylammonium propanoate]
0.135
CCCC(=O)[O-].CCCC[NH3+] [n-butylammonium butanoate]
0.089
CC(=O)O.CCCCN [butylammonium acetate]
0.159
CCCC[NH3+].O=C[O-] [butylammonium formate]
0.588
